# Measurement protocol: qHTS of TDP-43 Inhibitors; note: nearly all actives have a fitted effect of over 50% in size
# Test settings: TDP-43 expressing yeast growth rescue, BacTiter-Glo, 24 h; series mostly up to 46.1 µM
In all, about 410,000 compounds went through this assay and about 7,200 (1.8%) were called active. About 7% were inconclusive and are not listed. Calls come from the whole dose curve; as a rule, active = well fitted activation curve with a large enough effect; inconclusive = small, poorly fitted or top-dose-only effect, or another doubt; inactive = no such curve, though single readings can be large or run the other way. For the sample, actives were picked, then their nearest neighbours and some compounds at random.
Result category, one only: active, inactive

## Task Please share the test call associated with CCC1=Nc2cc(C(=O)NCCCOC(C)C)ccc2Sc2ccc(C)cc21 .
## Result inactive

## Task What did the test return for Cn1nnnc1SCCNCc1ccc(Cl)c(Cl)c1 ?
## Result inactive

## Task Hello, I am checking results. What call was entered for O=C1N(Cc2ccccc2)c2ccc(Cl)cc2C1(O)c1c[nH]c2ccccc12 (stereo unspecified) ?
## Result inactive

## Task Identify the outcome logged in this assay for the molecule shown: CCOc1ccc(N(Cc2ccccc2)C(=O)c2nc(SCC)ncc2Cl)cc1
## Result inactive

## Task Hey, what did the test say about COC(=O)c1ccc(CSc2nncn2N)cc1 ?
## Result inactive

## Task Could you please tell me the result logged for CCOc1ccc(N(Cc2ccccc2)C(=O)c2nc(S(C)(=O)=O)ncc2Cl)cc1 in this assay?
## Result active

## Task Hi, sorry to bother you, what did the test record for CCOc1ccc(C(=O)Nc2ccc3nc4c(c(Nc5ccccc5OC)c3c2)CCCC4)cc1 ?
## Result inactive

## Task // param item: CCOc1ccc(NC(=O)c2ccc(CSc3nnnn3C)cc2)cc1 ; yields the recorded call
## Result inactive

## Task // param item: COc1cccc(CNC(=O)Cn2ncn3c(cc4ccccc43)c2=O)c1 ; yields the recorded call
## Result inactive

## Task What did the test return for CCOC(=O)c1ccc(CSc2nnc3cc(C)c4ccccc4n23)cc1 ?
## Result active

## Task For Cc1ccc(C(=O)N2c3ncnn3C3(CCCCC3)[C@@H]3CCCC[C@@H]32)cc1 , what call appears in the results of this test?
## Result active
